meta.source: a melting point compilation (Tetko et al.; mined from patent text by program, amines drawn as free bases though some values may be those of a salt)

# melting point per record follows

> print(dat)
                                   molecule  endpointresult
1  CC(C)(C)Nc1c(NCc2cccc(OC(F)(F)F)c2)c(=O)c1=O   210 to 212 °C
2  CCCCCCCCCCCCCCCCCCOc1cc(OCCCCC(=O)OC)cc(N(CC(=O)O)CC(=O)O)c1     91 to 94 °C
3  CC1Cc2c(C#N)cccc2C1=O (stereo not given)   101 to 102 °C

Retrieve melting point measured for O=C(Nc1ccc(C(O)(C(F)(F)F)C(F)(F)F)cc1)Oc1ccccc1 and print it.
192 to 194 °C

Using the record for CC(=O)OCc1cccc(NC(=O)c2nnn(Cc3ccc(Cl)c(Cl)c3)c2C)c1 , state its measured melting point.
> 70 °C

Check the records and state melting point for Cc1c(-c2ccnc(Cl)n2)cccc1[N+](=O)[O-]
138 to 139 °C

# return recorded melting point for input CCOC(=O)C1=C(C)NC(=S)N(C(=O)OC(C)C)C1c1cccc([N+](=O)[O-])c1 (stereo not given)
150 to 152 °C

----------
Parameter: melting point. Scope: all listed entries.

> print(dat)
                        compound  measurementkind  endpointresult
1  CCOC(=S)c1ccc2sc(CCl)c(C)c2c1    melting point     95 to 96 °C
2       Cc1ccc(-c2n[nH]cc2C=O)s1    melting point     97 to 99 °C

Report melting point, nothing else, for this compound: CCOC(=O)Cn1c(=O)c(=O)[nH]c2cc(C(F)(F)F)c(-n3ccc(C=NOCc4ccccc4)c3)cc21
142 to 147 °C

Output measured melting point for this item: COc1cc(C(=O)ON=C(C)N)cc([N+](=O)[O-])c1OC
165 to 166 °C

Supply recorded melting point for CCOC(=O)C(C)c1cnc(Cl)c2cc(OC)ccc12 (stereo not given) here.
126 to 128 °C

Supply reported melting point belonging to this compound: CN(C)C1(c2cccc(F)c2)CC=C(c2[nH]c3ccccc3c2CCc2ccncc2)CC1 (stereo not given)
194 to 198 °C

Return the recorded melting point value; entry: CCC(C)(C)Nc1cccnc1N(C)C1CCN(C(=O)c2cc3cc([N+](=O)[O-])ccc3[nH]2)CC1
206 to 208 °C

Assign melting point to the following record: COC(=O)c1sc(OC)c(Cl)c1O
109 to 111 °C

Supply reported melting point belonging to this compound: CCCCOc1cc(/C=C(\OCC)C(=O)O)ccc1OCCc1ccc(OS(=O)(=O)CCCC)cc1OC
90 °C

In one line, give reported melting point of the entry Oc1ccccc1-c1cc(Oc2ccc3cccnc3c2)ncn1 .
188 to 191 °C

----------
Each entry below lists one item and its recorded melting point value.

> print(dat)
                                   compound  measurementkind  endpointresult
1  O=C1C(Cc2ccccc2Cl)c2cc([N+](=O)[O-])ccc2ON1CCO (stereo unspecified)    melting point   108 to 110 °C
2  CC(=O)OCC(OC(C)=O)C(OC(C)=O)C(C=O)OC(C)=O (stereo unspecified)    melting point   161 to 162 °C
3  CN(C)CC#Cc1cc(CN2CCOCC2)cc2c(=O)c(C(=O)NCc3ccc(Cl)cc3)cn(C)c12    melting point   154 to 157 °C
4  CCc1nccn1-c1nc(-c2ccc(Cl)cc2)c(CCCOc2ccccc2OC)o1    melting point     78 to 79 °C
5                          O=C=Nc1ccc(F)cc1    melting point     93 to 94 °C
6  CCOC(=O)c1cccc(C2COc3c(ccc(O)c3C)C2)c1 (stereo unspecified)    melting point   143 to 144 °C
7  CCOC(=O)Oc1c(OC)cc(C=CC(=O)Nc2cnc3c(C)cc(C)cc3c2-c2ccccc2Cl)cc1OC    melting point   228 to 229 °C
8  COc1cc(C(F)(F)F)cc(Cl)c1-n1nc(C#N)c(S(=O)C(F)(F)F)c1N (stereo unspecified)    melting point          195 °C

Assign melting point to the following record: CC(C)(CCCOc1ccccc1)C(=O)O
151 to 152 °C

Answer with reported melting point of CSC1=CNSC1(C#N)SC (stereo unspecified)
63.5 to 64 °C

State its melting point: FC(F)(F)c1cc(Cc2ccc(Cl)c(C(F)(F)F)c2)ccc1Cl
98 to 101 °C

Name the recorded melting point of the compound listed here: O=C1NCc2cccnc2N1c1cccc(I)c1
175 to 177 °C

Name the recorded melting point of the compound listed here: CCOC(=O)C=C(C)C=CC=C(C)C=Cc1c(C)c(C)c(OC)c(C)c1Cl
90 °C

Give me measured melting point, please, for this compound: CC(C)n1nc(-c2sc(N)nc2-c2cccc(Cl)c2)ccc1=O
236 to 237 °C
